The reported numbers originate from patent US20070071677A1.

# Test system: cell lines described in Example 3 (293T, HeLa, CT26, MCF-7)
# Measurement Notes: Cytotoxicity of LMWP peptides, MTT colorimetric assay
# Type: cell-based, human, murine
# Reported Conditions: FIG. 5; TAT at 5.0 mM and 10.0 mM
Ends that are not written are not given here.
Property Measured: cell cytotoxicity (in words)

>>> df
                substance   reported_measurement
0   ASRRRRRGGRRRR [TDSP4]  little or no toxicity
1          PRRRRR [TDSP2]  little or no toxicity
2      PRRRRSSRRP [TDSP3]  little or no toxicity
3  VSRRRRRRGGRRRR [TDSP5]  little or no toxicity
